- assay text: Cmax in Sprague-Dawley rat systemic circulation at 5 mg/kg, po or 0.5 mg/kg, iv measured up to 24 hrs by HPLC-MS/MS analysis
- Format: ADME, organism-based
- Parameters: dose 5 mg/kg, time <=24
Positions of bridges follow the written chain, without caps; N, C: chain ends. Non-standard residues stand in square brackets, D forms with d. Residues, ends and D or L forms follow the SMILES beside them. NMeF = CN[C@@H](Cc1ccccc1)C(=O)O; NMeNle = CCCC[C@H](NC)C(=O)O; Nle = CCCC[C@H](N)C(=O)O
assay endpoint: Cmax (nM)

Example entries begin here.
Recorded Cmax (compound CCCC[C@@H]1NC(=O)[C@H](Cc2ccccc2)NC(=O)CSC[C@@H](C(=O)NC)NC(=O)[C@H](CCCC)N(C)C(=O)[C@H](CCCC)N(C)C(=O)[C@H](CCCC)N(C)C(=O)[C@H](CCCC)NC(=O)[C@H](CCCC)N(C)C1=O ({CH2CO}-F[Nle][NMeNle][Nle][NMeNle][NMeNle][NMeNle]C-NHMe; thioether N-8) ): 436

Please fill in: Cmax reported for CCCC[C@@H]1NC(=O)[C@H](Cc2ccccc2)N(C)C(=O)CSC[C@H](C(=O)NC)N(C)C(=O)[C@H](CCCC)NC(=O)[C@H](CCCC)N(C)C(=O)[C@H](CCCC)NC1=O = 114

Short answer for CCCC[C@@H]1NC(=O)[C@H](CCCC)N(C)C(=O)[C@@H]2CCCN2C(=O)[C@H](CCCC)N(C)C(=O)[C@H](Cc2ccccc2)NC(=O)CSC[C@@H](C(=O)NC)NC(=O)[C@H](CCCC)N(C)C1=O ({CH2CO}-F[NMeNle]P[NMeNle][Nle][NMeNle]C-NHMe; thioether N-7) : Cmax was 868

According to the records, this compound CCCC[C@@H]1NC(=O)[C@H](Cc2ccccc2)N(C)C(=O)[C@@H]2CCCN2C(=O)[C@H](CCCC)N(C)C(=O)[C@H](Cc2ccccc2)NC(=O)CSC[C@@H](C(=O)NC)NC(=O)[C@H](CCCC)N(C)C1=O ({CH2CO}-F[NMeNle]P[NMeF][Nle][NMeNle]C-NHMe; thioether N-7) displays Cmax of 1950

A = CCCC[C@@H]1NC(=O)[C@H](Cc2ccccc2)NC(=O)CSC[C@H](C(=O)NC)NC(=O)[C@H](CCCC)N(C)C(=O)[C@H](CCCC)NC(=O)[C@H](CCCC)N(C)C1=O
B = CCCC[C@@H]1NC(=O)[C@H](CCCC)NC(=O)[C@H](CCCC)N(C)C(=O)[C@@H]2CCCN2C(=O)[C@H](CCCC)N(C)C(=O)[C@H](Cc2ccccc2)NC(=O)CSC[C@@H](C(=O)NC)NC1=O ({CH2CO}-F[NMeNle]P[NMeNle][Nle][Nle]C-NHMe; thioether N-7)
# return whichever of A and B has the smaller Cmax To answer, give the label that identifies your chosen option.
B

// data source = ChEMBL document CHEMBL4808165
